target: Arginase-2, mitochondrial (Homo sapiens); assay: in vitro enzyme assay to detect the production of urea directly proportional to the activity of Arginase II; type: functional; design: scale not given: in the data most compounds retested in dose-response had high values; conditions: 33.3 µM
Reported Percent Effect by item:

>  <Compound>
O=C(CCCOCc1ccccc1)N1CCCC1c1ccccn1 (configuration not stated)

>  <Percent Effect [%]>
7.99

$$$$
>  <Compound>
CC(c1nc(C(C)(C)C)no1)N1CCN(CC(=O)N2CCOCC2)CC1 (configuration not stated)

>  <Percent Effect [%]>
-1.18

$$$$
>  <Compound>
CC(NCc1ccncc1)c1cc(F)ccc1N1CCN(C)CC1 (configuration not stated)

>  <Percent Effect [%]>
15.6

$$$$
>  <Compound>
CN1CC(=O)N(c2cccc(F)c2)CC12CCN(Cc1cccnc1)C2 (configuration not stated)

>  <Percent Effect [%]>
12.3

$$$$
>  <Compound>
Cc1nc(CN2CCCN(C(=O)c3ccccn3)CC2)oc1C

>  <Percent Effect [%]>
4

$$$$
>  <Compound>
COC(=O)c1ccc(C2CC(=O)Oc3cc(C)[nH]c(=O)c32)cc1 (configuration not stated)

>  <Percent Effect [%]>
-2.99

$$$$
>  <Compound>
CC(C)CN(C)c1ccc(C(=O)N2CCCC2c2cnn(C)c2)cn1 (configuration not stated)

>  <Percent Effect [%]>
1.44

$$$$
>  <Compound>
COc1cccc(C(=O)N2CCCC(C(=O)CCc3ccccc3)C2)c1 (configuration not stated)

>  <Percent Effect [%]>
4.54

$$$$
>  <Compound>
CC(C(=O)NCc1ccc(N2CCNC(=O)C2)cc1)n1cncn1 (configuration not stated)

>  <Percent Effect [%]>
1.42

$$$$
>  <Compound>
COc1ccc(C(=O)N2CCCCC2Cn2cccn2)c(F)c1 (configuration not stated)

>  <Percent Effect [%]>
-1.42

$$$$
>  <Compound>
Cc1cc(C)nc(CCNC(=O)[C@H]2CNC[C@@H](C(=O)N3CCCC3)C2)n1

>  <Percent Effect [%]>
-5.59

$$$$
>  <Compound>
Cn1cc(C(=O)NCc2cn3c(n2)CN(Cc2ccccn2)CC3)cn1

>  <Percent Effect [%]>
2.08

$$$$
>  <Compound>
c1csc(-c2noc(CCCN3CCCC3Cn3cccn3)n2)c1 (configuration not stated)

>  <Percent Effect [%]>
-6.41

$$$$
>  <Compound>
Cc1nc(C(=O)N2CCCC(c3cccc(-n4ccnc4)n3)C2)co1 (configuration not stated)

>  <Percent Effect [%]>
-2.55

$$$$
>  <Compound>
Cc1cc(C)n(CC2CCCN2C(=O)c2c[nH]c3ncccc23)n1 (configuration not stated)

>  <Percent Effect [%]>
4.99

$$$$
>  <Compound>
COCc1noc(C2(c3ccc(F)cc3)CCOCC2)n1

>  <Percent Effect [%]>
-3.81

$$$$
>  <Compound>
CN(C)CCN1CCOCC2(C1)CN(Cc1ccsc1)CCO2 (configuration not stated)

>  <Percent Effect [%]>
4.89

$$$$
>  <Compound>
Cn1nc2c(cc1=O)CN(CCc1nc3ccccc3c(=O)[nH]1)CC2

>  <Percent Effect [%]>
2.27

$$$$
>  <Compound>
CC(=O)N1[C@H](Cn2cncn2)C[C@@H]2CN(c3ccc(C)nn3)CC[C@@H]21

>  <Percent Effect [%]>
0

$$$$
>  <Compound>
CCCc1cc(C(=O)N(C)Cc2cccc3ncccc23)n(C)n1

>  <Percent Effect [%]>
-19.3

$$$$
>  <Compound>
O=C(c1ccco1)N1C[C@@H]2OCCN(CCN3CCCC3)[C@@H]2C1

>  <Percent Effect [%]>
1.59

$$$$
>  <Compound>
Cc1cc(CN2CCN(CC(O)c3ccccc3)CC2)no1 (configuration not stated)

>  <Percent Effect [%]>
2.28

$$$$
>  <Compound>
Cc1nccc(C2CN(Cc3cc[nH]n3)CCO2)n1 (configuration not stated)

>  <Percent Effect [%]>
-1.16

$$$$
>  <Compound>
CSCC(C)(O)CNC(=O)c1ccc(Br)cc1F (configuration not stated)

>  <Percent Effect [%]>
3.23

$$$$
>  <Compound>
CC(=O)N1CCC2(CC1)CC[C@@]1(C(=O)N(C)C)CN(S(C)(=O)=O)C[C@@H]21

>  <Percent Effect [%]>
12.7

$$$$
>  <Compound>
O=C(c1cnoc1)N1CCC[C@]2(C[C@@H](OCc3ccccn3)CO2)C1

>  <Percent Effect [%]>
-1.6

$$$$
>  <Compound>
Cc1cc(C)c(CNC(=O)N2CCN(c3ncccn3)CC2)c(=O)[nH]1

>  <Percent Effect [%]>
3.45

$$$$
>  <Compound>
OC1CCN(Cc2c(C3CCCNC3)[nH]c3ncccc23)CC1 (configuration not stated)

>  <Percent Effect [%]>
-3.94

$$$$
>  <Compound>
COc1ccc(CNCC(C)Oc2ccccn2)cc1Br (configuration not stated)

>  <Percent Effect [%]>
-4.75

$$$$
>  <Compound>
CCn1cc(NC(=O)NCC(O)CN2CCCCC2)cn1 (configuration not stated)

>  <Percent Effect [%]>
4

$$$$
>  <Compound>
Cc1ccc(C)c(NC(=O)N(C)Cc2cnn(C)c2)c1

>  <Percent Effect [%]>
-0.401

$$$$
>  <Compound>
Cc1nc(C)n(CC2CCCCN2CC(=O)N(C)Cc2ccco2)n1 (configuration not stated)

>  <Percent Effect [%]>
0.21

$$$$
>  <Compound>
O=C(Cc1ccc(F)cc1)NCCNCC1CNc2ccnn2C1 (configuration not stated)

>  <Percent Effect [%]>
10

$$$$
>  <Compound>
Cc1cccc(-c2nc(CN(Cc3cccs3)CC3CCCO3)no2)c1 (configuration not stated)

>  <Percent Effect [%]>
4.95

$$$$
>  <Compound>
FC(F)(F)COCCN1CCCC(c2noc(C3CC3)n2)C1 (configuration not stated)

>  <Percent Effect [%]>
-0.521

$$$$
>  <Compound>
Cc1cc(=O)n(CC(=O)NCC2CCCO2)c(-c2cccc(Cl)c2)n1 (configuration not stated)

>  <Percent Effect [%]>
11

$$$$
>  <Compound>
CO[C@@H]1CCN(Cc2cnn(C)c2)[C@@H]2CN(Cc3ccco3)C[C@@H]21

>  <Percent Effect [%]>
-0.528

$$$$
>  <Compound>
Cc1noc(C(C)N2CCN(CCC(=O)N3CCCCC3)CC2)n1 (configuration not stated)

>  <Percent Effect [%]>
-16.6

$$$$
>  <Compound>
CC(NC(=O)c1ccc2c(c1)OCC(=O)N2)c1ccccc1F (configuration not stated)

>  <Percent Effect [%]>
-0.719

$$$$
>  <Compound>
CCn1c(C)nnc1CN(C)C1CCN(Cc2cnc(C)cn2)C1 (configuration not stated)

>  <Percent Effect [%]>
-2.73

$$$$
>  <Compound>
COc1ccc(Cl)cc1NCC(=O)NCCc1ccccn1

>  <Percent Effect [%]>
0.401

$$$$
>  <Compound>
CC(=O)N1CCn2cc(CNC(=O)c3cccn3C)nc2C1

>  <Percent Effect [%]>
0.233

$$$$
>  <Compound>
Cc1cc(CN2CCN(C(C)c3nc(C4CC4)no3)CC2)no1 (configuration not stated)

>  <Percent Effect [%]>
4.52

$$$$
>  <Compound>
CCOCCCn1c(NC(=O)c2cnn(C)c2)nc2ccccc21

>  <Percent Effect [%]>
-1.07

$$$$
>  <Compound>
Cc1nc(C(=O)N2CCC(Nc3cccnn3)CC2)cs1

>  <Percent Effect [%]>
-5.68

$$$$
>  <Compound>
COc1ccccc1C1CNC(=O)c2nc(-c3cnn(C)c3)[nH]c2C1 (configuration not stated)

>  <Percent Effect [%]>
1.43

$$$$
>  <Compound>
CCn1cc2c(n1)CN(C(=O)c1ccncc1)CC2COCC1CC1 (configuration not stated)

>  <Percent Effect [%]>
-23.5

$$$$
